Hello, the source for this data is PubChem BioAssay (Tox21), in case you need it.

target: Bile acid receptor (Homo sapiens) (UniProt Q96RI1); test: qHTS assay to identify small molecule antagonists of the farnesoid-X-receptor (FXR) signaling pathway (AID 743217); conditions: HEK293T FXR-UAS-bla, beta-lactamase ratio, CDCA-stimulated, 16 h; series mostly up to 62.6 µM
Sequence (Q96RI1 whole entry, looked up): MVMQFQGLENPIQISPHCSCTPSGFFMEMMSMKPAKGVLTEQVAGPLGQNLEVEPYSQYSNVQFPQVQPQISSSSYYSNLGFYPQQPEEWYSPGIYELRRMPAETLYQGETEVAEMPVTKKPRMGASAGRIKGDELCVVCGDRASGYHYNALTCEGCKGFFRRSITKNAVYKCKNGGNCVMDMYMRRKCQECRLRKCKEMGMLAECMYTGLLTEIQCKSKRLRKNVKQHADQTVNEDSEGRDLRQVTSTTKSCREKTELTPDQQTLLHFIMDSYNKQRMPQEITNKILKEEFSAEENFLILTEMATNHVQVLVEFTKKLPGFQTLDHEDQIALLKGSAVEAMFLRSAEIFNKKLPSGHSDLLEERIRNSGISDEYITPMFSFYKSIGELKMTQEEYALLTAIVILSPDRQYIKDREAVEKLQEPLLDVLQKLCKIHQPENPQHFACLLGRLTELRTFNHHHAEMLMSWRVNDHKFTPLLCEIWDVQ
Inconclusive results are not listed. Calls of active or inactive are those of the source. Calls come from the whole dose curve; as a rule, active = well fitted inhibition curve with a large enough effect in the signal ratio in the repeat runs (not every such curve was filed as active); inconclusive = weak or mixed curves, or effect the other way; inactive = no such curve, though single readings can be large or run the other way; the % refers to the signal ratio.
Could you please pick one outcome from this set? active, inactive

The examples below pair each entry with its known result.
Request: Which outcome was entered for the molecule `O=C1CCCCCCCCCCCCCCCO1` in this test?
Result: inactive

Request: Fill in: this test's call for `CCCCCCCC` is ___
Result: inactive

Request: # outcome recorded in this test, key = CCCCC(CC)COC(=O)CCCCC(=O)OCc1ccccc1 (stereo not given)
Result: inactive

Request: # lookup: test call for `Sc1nc2ccccc2s1`
Result: inactive

Request: Tell me the assay call for `CC(C)Cn1cnc2c(N)nc3ccccc3c21` please.
Result: inactive

Request: Hi, do you know how `C=C(C)C(=O)OCCCCCCCCCC` came out in this test?
Result: inactive

Request: What call does the record list for `S=c1nccc[nH]1` ?
Result: inactive

Request: // outcome(item) with item = `CCC(=O)OC(=O)CC`
Result: inactive

---
Request: Any idea what this test logged for `CCCCCCCCCCCCOC(=O)c1ccc(O)cc1` ?
Result: active

Request: Hey, what did the test say about `Cc1ccc(O)c(N)c1` ?
Result: inactive

Request: Look up the recorded call for `Cl[Si](Cl)(c1ccccc1)c1ccccc1` in this test.
Result: inactive

Request: Assay result, entry `CCn1c2ccccc2c2cc([N+](=O)[O-])ccc21` — outcome?
Result: inactive

Request: What is the recorded call for this molecule in the test? `CCCCCCCCCCCCCC[N+](C)(C)Cc1ccccc1`
Result: inactive
